Record set of pKi for target or system 5-hydroxytryptamine receptor 7 (Homo sapiens, UniProt P34969).
Bear in mind: pKi is minus log10 of a mol/L concentration; give just that figure.

Record excerpt, results attached:
1) CN1CCN(CCCC2(S(=O)(=O)c3ccccc3)CCC2)CC1 ... 5.24
2) O=S(=O)(c1ccccc1)C1(CCCCN2CCC(c3ccccc3)C2)CCC1 (racemic) ... 7.89
3) O=S(=O)(c1ccccc1)C1(CCCN2CCN(c3ccccc3)CC2)CCC1 ... 7.66

Any idea what pKi was measured for CC(C)(CCCN1CCCC(c2ccccc2)C1)S(=O)(=O)c1ccccc1 (racemic) ? 8.15

Any idea what pKi was measured for CC1CCN(CCCC2(S(=O)(=O)c3ccccc3)CCC2)CC1 ? 6.26

Any idea what pKi was measured for O=S(=O)(c1ccccc1)C1(CCCN2CCc3ccccc3C2)CCC1 ? 8.10

Any idea what pKi was measured for O=S(=O)(c1ccccc1)C1(CCCN2CCC3CCCCC3C2)CCC1 (racemic) ? 8.22
